# Tested on: Human immunodeficiency virus 2
# measurement description: Inhibition of human immunodeficiency virus type 2 (HIV-2) induced cytopathogenicity in CEM cells
# Assay type: functional, organism-based
# condition parameters: Human immunodeficiency virus 2, CCRF-CEM
readout: EC50

In the examples that follow, each entry is paired with its recorded EC50.
>  <structure string>
CCOP(=O)(COCCn1cnc2c(N)ncnc21)OCC

>  <EC50>
> 100 mg/L

$$$$
>  <structure string>
CC(C)CCCCCOP(=O)(COCCn1cnc2c(N)nc(N)nc21)OCCCCCC(C)C

>  <EC50>
> 4 mg/L

$$$$
>  <structure string>
Nc1nc(F)nc2c1ncn2CCOCP(=O)(O)O

>  <EC50>
40 mg/L

$$$$

Prompt line: Recorded EC50 for "Nc1nc(O)c2nc(Br)n(CCOCP(=O)(O)O)c2n1" with Human immunodeficiency virus 2, please?
Response line: > 100 mg/L

Prompt line: I'm curious: which EC50 was measured for "CC(C)OP(=O)(O)COCCn1cnc2c(O)nc(N)nc21" tested on Human immunodeficiency virus 2?
Response line: 11 mg/L

Prompt line: Under Human immunodeficiency virus 2: EC50 value of "CC(C)OP(=O)(COCCn1cnc2c(O)nc(N)nc21)OC(C)C" ?
Response line: > 100 mg/L

Prompt line: Short answer please: EC50, Human immunodeficiency virus 2, entry "CC(C)CCCCCOP(=O)(COCCn1cnc2nc(N)nc(O)c21)OCCCCCC(C)C"
Response line: > 20 mg/L

Prompt line: Observed EC50 on Human immunodeficiency virus 2 for "CC(C)OP(=O)(COCCn1c(Br)nc2c(N)nc(N)nc21)OC(C)C" , please.
Response line: > 100 mg/L
